test summary: self-splicing fitness, log relative to wild type (ln ratio); higher = more splicing; Tetrahymena group I intron in knt gene, E. coli kanamycin selection, DiMSum; sequences stand for … in CUCUCU…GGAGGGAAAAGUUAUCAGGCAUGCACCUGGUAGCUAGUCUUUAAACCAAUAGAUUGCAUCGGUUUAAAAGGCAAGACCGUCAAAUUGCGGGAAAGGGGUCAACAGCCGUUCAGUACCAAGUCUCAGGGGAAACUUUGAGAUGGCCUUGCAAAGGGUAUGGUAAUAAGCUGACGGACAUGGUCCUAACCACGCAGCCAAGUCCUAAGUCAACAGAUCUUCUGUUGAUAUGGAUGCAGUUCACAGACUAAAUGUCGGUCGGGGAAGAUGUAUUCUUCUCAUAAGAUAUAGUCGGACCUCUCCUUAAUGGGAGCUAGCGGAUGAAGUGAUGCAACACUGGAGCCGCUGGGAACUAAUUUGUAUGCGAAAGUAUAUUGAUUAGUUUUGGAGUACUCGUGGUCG;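 further: selection with 25 µg/mL kanamycin versus none on LB agar overnight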
test conditions: 30 °C
Binary classification by self-splicing fitness (ln), with -2 as an inclusive lower bound for yes; all other cases are no.

- seq string: "GAAUAGCAAUAUUACGUCUG"
  assigned label: "yes"
- seq string: "ACAGAGCAAUAUUACGUCUG"
  assigned label: "no"
- seq string: "UUGAAGCAAUAUUACGGCGU"
  assigned label: "yes"
- seq string: "GCAAAGCAAUAUUACGAGGU"
  assigned label: "no"
- seq string: "GUAGAGCAAUAUUACGCGAG"
  assigned label: "yes"
- seq string: "GGUAAGCAAUAUUACGGCGG"
  assigned label: "no"
- seq string: "AGACAGCAAUAUUACGGCUC"
  assigned label: "no"
- seq string: "UCCAAGCAAUAUUACGGGAA"
  assigned label: "yes"
- seq string: "CCAAAGCAAUAUUACGUCUC"
  assigned label: "no"
- seq string: "GCGGAGCAAUAUUACGUAUC"
  assigned label: "yes"
- seq string: "CAUGAGCAAUAUUACGCAGU"
  assigned label: "no"
- seq string: "CGCAAGCAAUAUUACGUCUG"
  assigned label: "yes"
- seq string: "UUGCAGCAAUAUUACGCCCG"
  assigned label: "yes"
- seq string: "CCUCAGCAAUAUUACGAGCA"
  assigned label: "no"
- seq string: "AGAUAGCAAUAUUACGUACU"
  assigned label: "yes"
- seq string: "GGUCAGCAAUAUUACGUUGG"
  assigned label: "no"
- seq string: "GCCAAGCAAUAUUACGGGUA"
  assigned label: "yes"
- seq string: "AAGGAGCAAUAUUACGCCAG"
  assigned label: "no"
- seq string: "GCGAAGCAAUAUUACGCCCG"
  assigned label: "no"
- seq string: "GACAAGCAAUAUUACGCGUA"
  assigned label: "yes"
- seq string: "CAAGAGCAAUAUUACGCGGC"
  assigned label: "no"
- seq string: "AGGUAGCAAUAUUACGGUAG"
  assigned label: "no"
- seq string: "GCGUAGCAAUAUUACGGCGG"
  assigned label: "no"
